meta.source: ChEMBL document CHEMBL4602661

Assay Remarks: Cytotoxicity against BALB/C mouse B lymphocytes assessed as cell viability at 40 uM after 8 to 10 hrs by CCK-8 assay relative to control
Assay type: cell-based
Conditions: read-out: Activity
Experimental Endpoint: viability at 40 µM

Worked cases, viability at 40 µM given:
Compound	Measurement
C[C@@]12CCO[C@@H]1C1=CC[C@H]3[C@H](CO)CCC[C@]3(C)[C@H]1CC2	> 85%
CC1(O)CCC[C@]2(C)C3=C(C[C@@]4(C)CCO[C@@H]3C4)[C@@H](O)C[C@@H]12 (stereo partly drawn)	> 85%
C[C@]12CCC[C@@](C)(O)[C@@H]1CC=C1[C@H]3OC[C@@H](O)[C@@]3(C)CC[C@@H]12	> 85%
C=C1CC[C@H]2[C@@](C)(CO)CCC[C@]2(C)[C@H]1CC/C(C)=C/CO	> 85%
C[C@]1(CCO)CC[C@H]2C(=CC[C@H]3[C@H](O)CCC[C@]23C)C1	> 85%

[ask] Request the reported viability at 40 µM associated with C[C@@]12CCO[C@@H]1C1=CC[C@H]3[C@H](O)CCC[C@]3(C)[C@H]1CC2
[reply] > 85%

[ask] Requested read-out: viability at 40 µM. Entry: C[C@]1(CCO)CC[C@H]2C(=CC[C@@H]3[C@]2(C)CCC[C@@]3(C)O)C1
[reply] > 85%

[ask] # lookup: viability at 40 µM of C[C@@]1(CCO)CC2=CC[C@@H]3[C@](C)(CCC[C@@]3(C)O)[C@H]2[C@H](O)C1
[reply] > 85%
